test: Quantitative High-Throughput drug screen in 47 multiple myeloma cell lines against the NCATS MIPE library collection: PCM6_Riken cell viability assay (AID 1919870); settings: CellTiter-Glo ATP, 48 h; series mostly up to 45.8 µM; note: nearly all actives have a fitted effect of over 30% in size; note: potency is the fitted concentration of half-maximal effect
Inconclusive results are not listed. The source made the active and inactive calls. Calls come from the whole dose curve; as a rule, active = well fitted cell-killing curve with a large enough effect; inconclusive = small, poorly fitted or top-dose-only effect, or effect the other way; inactive = no such curve, though single readings can be large or run the other way.
assay.metric: Potency

Known results for compounds:
INSERT INTO results (compound, assay_metric, measured) VALUES
  ('CC(C)[C@H](N)C(=O)OCCOCn1cnc2c(=O)[nH]c(N)nc21', 'Potency', 'inactive'),
  ('COc1c2occc2cc2ccc(=O)oc12', 'Potency', 'inactive'),
  ('CC(=O)O[C@H]1C(=O)[C@@]2(C)C([C@H](OC(=O)c3ccccc3)[C@]3(O)C[C@H](OC(=O)[C@H](O)[C@@H](NC(=O)c4ccccc4)c4ccccc4)C(C)=C1C3(C)C)[C@]1(OC(C)=O)CO[C@@H]1C[C@@H]2O (some centres not stated)', 'Potency', 'inactive'),
  ('N[C@@H](Cc1cc(I)c(Oc2cc(I)c(O)c(I)c2)c(I)c1)C(=O)O', 'Potency', 'inactive'),
  ('Clc1ccc(C(Cn2ccnc2)OCc2c(Cl)cccc2Cl)c(Cl)c1 (configuration not stated)', 'Potency', '14.8 µM (active)');

Supply recorded Potency for COC1=C(OC)C(=O)C(CCCCCCCCCCO)=C(C)C1=O here.
16.6 µM (active)

Supply recorded Potency for COc1cc(Nc2c(C#N)cnc3cc(OCCCN4CCN(C)CC4)c(OC)cc23)c(Cl)cc1Cl here.
1.87 µM (active)

Supply recorded Potency for CC(C)(S)[C@@H](N)C(=O)O here.
inactive

Supply recorded Potency for Cc1ccc(Nc2nccc(N(C)c3ccc4c(C)n(C)nc4c3)n2)cc1S(N)(=O)=O here.
4.69 µM (active)

Supply recorded Potency for S=c1nc[nH]c2nc[nH]c12 here.
5.9 µM (active)

Supply recorded Potency for c1cnc2cc3c(cc2n1)C1CNCC3C1 here.
inactive

Supply recorded Potency for O=c1ccc2ccc(O)c(O)c2o1 here.
13.2 µM (active)

Supply recorded Potency for O=C(OC1C[C@H]2CC[C@@H](C1)[N+]21CCCC1)C(O)(c1ccccc1)c1ccccc1 (some centres not stated) here.
inactive

Supply recorded Potency for C[C@@H](N)C1CCC(C(=O)Nc2ccncc2)CC1 (some centres not stated) here.
14.8 µM (active)

Supply recorded Potency for O=C(O)CCNC(=O)c1ccc(N=Nc2ccc(O)c(C(=O)O)c2)cc1 here.
inactive

Supply recorded Potency for CC(C)C[C@H](NC(=O)[C@H](Cc1ccccc1)NC(=O)c1cnccn1)B(O)O here.
0.0105 µM (active)

Supply recorded Potency for O=C1NC(=O)C(c2ccccc2[N+](=O)[O-])=C1Nc1ccc(O)c(Cl)c1 here.
18.7 µM (active)

Supply recorded Potency for CCOC(=O)C1=C[C@@H](OC(CC)CC)[C@H](NC(C)=O)[C@@H](N)C1 here.
inactive

Supply recorded Potency for NS(=O)(=O)c1cc(C(=O)O)c(NCc2ccco2)cc1Cl here.
inactive

Supply recorded Potency for CC(C)c1ccc2oc3nc(N)c(C(=O)O)cc3c(=O)c2c1 here.
inactive

Supply recorded Potency for NC(=O)Cc1cccc(C(=O)c2ccccc2)c1N here.
inactive

Supply recorded Potency for Cc1cc(C2CCCCC2)n(O)c(=O)c1 here.
8.33 µM (active)
